// provenance: ChEMBL document CHEMBL1135703

Quick reference for inhibition among some compounds
# tested-target: Tyrosine-protein phosphatase non-receptor type 1 (Rattus norvegicus)
# assay-comment: Percent inhibition of Protein-tyrosine phosphatase 1 (PTP) assayed at 100 uM
attribute-measured: inhibition (%)

compound	attribute-measured	readout-units	value-measured
CCCCCNC(=O)C(Cc1ccc(OCC(=O)O)c(C(N)=O)c1)NC(=O)CCC(=O)O (centres undefined)	inhibition	%	11
CCCCCNC(=O)C(Cc1ccc(C=C(C(=O)O)C(=O)O)cc1)NC(=O)CCC(=O)O (centres undefined)	inhibition	%	33
CCCCCNC(=O)C(Cc1ccc(OC(C(=O)O)C(=O)O)cc1)NC(=O)[C@H](COc1ccc(Cc2cc(Cl)ccc2Cl)cc1)NC(=O)OC(C)(C)C (some centres undefined)	inhibition	%	85
O=C(O)CCC(=O)NC(Cc1ccc(OC(C(=O)O)C(=O)O)cc1)C(=O)NCCCn1ccnc1 (centres undefined)	inhibition	%	26

----------
# tested-target: UniProt P35235
# Sequence (P35235 whole entry, the tested form may be a part): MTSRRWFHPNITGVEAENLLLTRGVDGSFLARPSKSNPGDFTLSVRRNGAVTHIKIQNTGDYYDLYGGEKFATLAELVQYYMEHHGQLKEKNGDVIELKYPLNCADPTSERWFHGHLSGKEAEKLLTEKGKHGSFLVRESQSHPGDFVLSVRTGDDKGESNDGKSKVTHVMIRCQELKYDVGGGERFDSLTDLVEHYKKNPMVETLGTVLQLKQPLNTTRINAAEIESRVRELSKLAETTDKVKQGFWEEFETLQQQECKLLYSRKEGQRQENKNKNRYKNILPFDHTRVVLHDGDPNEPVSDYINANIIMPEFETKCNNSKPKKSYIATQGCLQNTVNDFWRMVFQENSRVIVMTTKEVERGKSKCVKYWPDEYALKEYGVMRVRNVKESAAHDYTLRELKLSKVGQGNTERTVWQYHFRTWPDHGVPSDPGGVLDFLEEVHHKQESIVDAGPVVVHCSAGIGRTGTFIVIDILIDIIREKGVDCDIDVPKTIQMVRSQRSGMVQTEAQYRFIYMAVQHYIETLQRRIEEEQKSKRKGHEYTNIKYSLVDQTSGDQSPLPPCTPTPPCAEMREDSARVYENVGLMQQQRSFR
# assay-comment: Percent inhibition of Tyrosine phosphatase SHP2 SH2 domain containing PTP involved in insulin uM
# Parameters: concentration or dose not given beside the values
# setup-conditions: concentration not given here
Tag: 1 if measured inhibition is not below 20%, -1 if it is.

compound	tested-target	label-value
O=C(O)CCC(=O)NC(Cc1ccc(OC(C(=O)O)C(=O)O)cc1)C(=O)NCCN1CCCCC1 (stereo unspecified)	UniProt P35235	-1
CCCCCNC(=O)C(Cc1ccc(OC(C(=O)O)C(=O)O)cc1)NC(=O)[C@H](COc1ccc(Cc2cc(Cl)ccc2Cl)cc1)NC(=O)OC(C)(C)C (stereo partly specified)	UniProt P35235	1
CCCCCNC(=O)C(Cc1ccc(OC(C(=O)O)C(=O)O)cc1)NC(=O)[C@H](Cc1ccccc1)NC(=O)OC(C)(C)C (stereo partly specified)	UniProt P35235	-1
CCCCCNC(=O)C(Cc1ccc(OC(C(=O)O)C(=O)O)cc1)NC(=O)CC1(CC(=O)O)CCCC1 (stereo unspecified)	UniProt P35235	-1
CCCCCNC(=O)[C@H](Cc1ccc(OC(C(=O)O)C(=O)O)cc1)NC(=O)[C@@H](Cc1ccc(C(=O)c2ccccc2)cc1)NC(=O)CCC(=O)O	UniProt P35235	-1
CCCCCNC(=O)C(CCc1ccc(OC(C(=O)O)C(=O)O)cc1)NC(=O)CCC(=O)O (stereo unspecified)	UniProt P35235	-1
CCCCCNC(=O)[C@H](Cc1ccc(OCC(=O)O)c(C(=O)O)c1)NC(=O)[C@@H](Cc1ccccc1)NC(=O)OC(C)(C)C	UniProt P35235	-1
O=C(O)CCC(=O)NC(Cc1ccc(OC(C(=O)O)C(=O)O)cc1)C(=O)NCCCc1ccccc1 (stereo unspecified)	UniProt P35235	-1
CCCCCNC(=O)C(Cc1ccc(OC(C(=O)O)C(=O)O)cc1)NC(=O)[C@H](Cc1ccc(OC)cc1)NC(=O)CCC(=O)O (stereo partly specified)	UniProt P35235	1
CCCCCNC(=O)C(Cc1ccc(OC(C(=O)O)C(=O)O)cc1)NC(=O)[C@H](Cc1ccccc1)NC(=O)CCC(=O)O (stereo partly specified)	UniProt P35235	1
CCCCC(N)C(=O)NC(=O)C(Cc1ccc(OC(C(=O)O)C(=O)O)cc1)NC(=O)CCC(=O)O (stereo unspecified)	UniProt P35235	1
O=C(O)CCC(=O)NC(Cc1ccc(OC(C(=O)O)C(=O)O)cc1)C(=O)NCC1CCCCC1 (stereo unspecified)	UniProt P35235	-1
CCCCCNC(=O)[C@@H](Cc1ccc(OC(C(=O)O)C(=O)O)cc1)NC(=O)CCC(=O)O	UniProt P35235	-1
CCCCCNC(=O)C(Cc1ccc(OC(C(=O)O)C(=O)O)cc1)NC(=O)[C@H](Cc1ccc(C(=O)c2ccccc2)cc1)NC(=O)OC(C)(C)C (stereo partly specified)	UniProt P35235	-1
NS(=O)(=O)c1ccc(CCNC(=O)C(Cc2ccc(OC(C(=O)O)C(=O)O)cc2)NC(=O)CCC(=O)O)cc1 (stereo unspecified)	UniProt P35235	-1
CCCCCNC(=O)C(Cc1ccc(OC(C(=O)O)C(=O)O)cc1)NC(=O)CC(C)(C)CC(=O)O (stereo unspecified)	UniProt P35235	-1

----------
# tested-target: Receptor-type tyrosine-protein phosphatase F (Homo sapiens) (UniProt P10586)
# Sequence (P10586 whole entry): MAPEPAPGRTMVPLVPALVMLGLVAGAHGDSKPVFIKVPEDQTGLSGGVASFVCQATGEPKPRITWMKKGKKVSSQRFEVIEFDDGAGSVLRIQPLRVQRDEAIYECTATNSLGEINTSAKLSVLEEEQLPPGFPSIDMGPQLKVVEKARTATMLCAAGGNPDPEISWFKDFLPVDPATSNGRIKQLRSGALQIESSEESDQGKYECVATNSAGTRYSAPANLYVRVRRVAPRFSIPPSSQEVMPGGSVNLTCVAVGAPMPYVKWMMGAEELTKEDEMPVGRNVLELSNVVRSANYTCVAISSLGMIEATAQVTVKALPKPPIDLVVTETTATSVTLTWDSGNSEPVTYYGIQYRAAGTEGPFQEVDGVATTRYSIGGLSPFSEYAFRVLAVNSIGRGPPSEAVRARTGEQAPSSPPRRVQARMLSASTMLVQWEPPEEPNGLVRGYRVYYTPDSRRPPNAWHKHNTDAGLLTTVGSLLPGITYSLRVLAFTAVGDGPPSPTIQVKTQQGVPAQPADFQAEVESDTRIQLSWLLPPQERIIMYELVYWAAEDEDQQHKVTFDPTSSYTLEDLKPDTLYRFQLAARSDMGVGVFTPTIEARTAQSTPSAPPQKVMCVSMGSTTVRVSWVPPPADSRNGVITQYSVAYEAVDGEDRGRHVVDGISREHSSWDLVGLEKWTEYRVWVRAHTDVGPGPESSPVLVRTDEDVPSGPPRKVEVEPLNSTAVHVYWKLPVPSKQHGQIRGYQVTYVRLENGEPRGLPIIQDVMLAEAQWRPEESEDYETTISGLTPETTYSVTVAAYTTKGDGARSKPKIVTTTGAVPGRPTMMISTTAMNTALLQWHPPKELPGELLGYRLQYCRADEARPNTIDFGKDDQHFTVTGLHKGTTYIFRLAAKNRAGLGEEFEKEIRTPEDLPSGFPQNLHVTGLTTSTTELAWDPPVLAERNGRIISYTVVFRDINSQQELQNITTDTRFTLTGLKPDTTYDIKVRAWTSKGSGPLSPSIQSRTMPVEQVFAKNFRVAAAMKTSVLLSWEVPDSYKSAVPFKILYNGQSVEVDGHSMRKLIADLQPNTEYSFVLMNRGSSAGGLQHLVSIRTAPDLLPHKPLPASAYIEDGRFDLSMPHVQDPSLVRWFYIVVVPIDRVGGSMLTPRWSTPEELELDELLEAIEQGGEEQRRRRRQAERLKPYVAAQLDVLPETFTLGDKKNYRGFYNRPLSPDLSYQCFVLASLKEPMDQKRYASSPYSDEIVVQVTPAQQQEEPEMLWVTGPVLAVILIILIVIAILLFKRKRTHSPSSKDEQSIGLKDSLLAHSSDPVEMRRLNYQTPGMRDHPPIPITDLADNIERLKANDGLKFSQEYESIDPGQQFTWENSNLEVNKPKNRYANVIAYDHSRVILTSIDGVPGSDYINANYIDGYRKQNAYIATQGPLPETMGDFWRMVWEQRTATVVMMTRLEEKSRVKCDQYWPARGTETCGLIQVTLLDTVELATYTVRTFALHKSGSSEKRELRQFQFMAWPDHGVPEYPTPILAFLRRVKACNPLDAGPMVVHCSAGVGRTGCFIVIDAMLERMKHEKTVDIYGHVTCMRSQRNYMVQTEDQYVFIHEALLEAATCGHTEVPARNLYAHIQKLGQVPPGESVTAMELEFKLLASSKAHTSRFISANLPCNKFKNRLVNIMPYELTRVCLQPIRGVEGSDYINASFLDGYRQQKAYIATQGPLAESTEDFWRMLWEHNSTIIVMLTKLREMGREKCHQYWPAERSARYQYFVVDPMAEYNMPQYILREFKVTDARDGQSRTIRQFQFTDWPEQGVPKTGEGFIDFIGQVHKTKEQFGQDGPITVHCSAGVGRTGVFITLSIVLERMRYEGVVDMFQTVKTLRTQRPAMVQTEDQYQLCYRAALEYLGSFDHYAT
# assay-comment: Percent inhibition of Protein-tyrosine phosphatase Lar assayed at 100 uM
Quick reference for inhibition among some molecules
attribute-measured: inhibition

> print(dat)
                                   molecule                             tested.target  value.measured
1  NS(=O)(=O)c1ccc(CCNC(=O)C(Cc2ccc(OC(C(=O)O)C(=O)O)cc2)NC(=O)CCC(=O)O)cc1 (stereo not drawn)  Receptor-type tyrosine-protein phosphatase F (Homo sapiens) (UniProt P10586)              5%
2  CCCCCCCCCCNC(=O)C(Cc1ccc(OC(C(=O)O)C(=O)O)cc1)NC(=O)CCC(=O)O (stereo not drawn)  Receptor-type tyrosine-protein phosphatase F (Homo sapiens) (UniProt P10586)              4%
3  O=C(O)CCC(=O)NC(Cc1ccc(OC(C(=O)O)C(=O)O)cc1)C(=O)NCCCn1ccnc1 (stereo not drawn)  Receptor-type tyrosine-protein phosphatase F (Homo sapiens) (UniProt P10586)              3%
4  CCCCCNC(=O)C(Cc1ccc(OC(C(=O)O)C(=O)O)cc1)NC(=O)[C@H](Cc1ccc(OCc2ccccc2)cc1)NC(=O)CCC(=O)O (stereo partly drawn)  Receptor-type tyrosine-protein phosphatase F (Homo sapiens) (UniProt P10586)             28%
5  CCCCCNC(=O)C(Cc1ccc(OC(C(=O)O)C(=O)O)cc1)NC(=O)CCC(=O)O (stereo not drawn)  Receptor-type tyrosine-protein phosphatase F (Homo sapiens) (UniProt P10586)              2%
6  CCOC(CNC(=O)C(Cc1ccc(OC(C(=O)O)C(=O)O)cc1)NC(=O)CCC(=O)O)OCC (stereo not drawn)  Receptor-type tyrosine-protein phosphatase F (Homo sapiens) (UniProt P10586)              3%
7  CC(C)CCNC(=O)C(Cc1ccc(OC(C(=O)O)C(=O)O)cc1)NC(=O)CCC(=O)O (stereo not drawn)  Receptor-type tyrosine-protein phosphatase F (Homo sapiens) (UniProt P10586)              5%
8  CCCCCNC(=O)C(Cc1ccc(OC(C(=O)O)C(=O)O)cc1)NC(=O)[C@H](Cc1ccc(C(=O)c2ccccc2)cc1)NC(=O)OC(C)(C)C (stereo partly drawn)  Receptor-type tyrosine-protein phosphatase F (Homo sapiens) (UniProt P10586)             24%

----------
Quick reference for inhibition among some molecules
# tested-target: Receptor-type tyrosine-protein phosphatase F (Homo sapiens) (UniProt P10586)
# assay-comment: Percent inhibition of Protein-tyrosine phosphatase Lar assayed at 100 uM
attribute-measured: inhibition (%)

> print(dat)
                                   molecule                             tested.target  attribute.measured  value.measured
1  CCCCCNC(=O)C(Cc1ccc(OC(C(=O)O)C(=O)O)c(F)c1F)NC(=O)CCC(=O)O (stereo not given)  Receptor-type tyrosine-protein phosphatase F (Homo sapiens) (UniProt P10586)          inhibition              12
2  O=C(O)CCC(=O)NC(Cc1ccc(OC(C(=O)O)C(=O)O)cc1)C(=O)NCCOc1ccccc1 (stereo not given)  Receptor-type tyrosine-protein phosphatase F (Homo sapiens) (UniProt P10586)          inhibition               4
3  CCCCCNC(=O)C(Cc1ccc(OCC(N)=O)c(C(=O)O)c1)NC(=O)CCC(=O)O (stereo not given)  Receptor-type tyrosine-protein phosphatase F (Homo sapiens) (UniProt P10586)          inhibition               0
4  CCCCNC(=O)C(Cc1ccc(OC(C(=O)O)C(=O)O)cc1)NC(=O)CCC(=O)O (stereo not given)  Receptor-type tyrosine-protein phosphatase F (Homo sapiens) (UniProt P10586)          inhibition               5
5  CC(C)CC(CO)NC(=O)C(Cc1ccc(OC(C(=O)O)C(=O)O)cc1)NC(=O)CCC(=O)O (stereo not given)  Receptor-type tyrosine-protein phosphatase F (Homo sapiens) (UniProt P10586)          inhibition               0

----------
# assay-comment: Uptake of 2-deoxyglucose into L-6 myocytes, measurements were taken in absence of insulin (basal), assayed at 100 uM
# Format: functional
attribute-measured: 2-deoxyglucose uptake, % of control

> print(dat)
                                   compound  value.measured
1  CCCCCNC(=O)C(Cc1ccc(OCC(=O)OC)c(C(=O)OC)c1)NC(=O)[C@H](Cc1ccccc1)NC(=O)CCC(=O)OC (stereo not given in full)            225%
2  CCCCCNC(=O)C(Cc1ccc(OCC(=O)O)c(C(=O)O)c1)NC(=O)[C@H](Cc1ccccc1)NC(=O)OC(C)(C)C (stereo not given in full)             81%
3  CCCCCNC(=O)C(Cc1ccc(OCC(=O)OC)c(C(=O)OC)c1)NC(=O)[C@H](Cc1ccccc1)NC(=O)OC(C)(C)C (stereo not given in full)            114%
4  CCCCCNC(=O)[C@H](Cc1ccc(OCC(=O)O)c(C(=O)O)c1)NC(=O)[C@@H](Cc1ccccc1)NC(=O)OC(C)(C)C            107%
5  CCCCCNC(=O)C(Cc1ccc(OCC(=O)O)c(C(=O)O)c1)NC(=O)[C@H](Cc1ccccc1)NC(=O)CCC(=O)O (stereo not given in full)            105%
